tested on: TGF-b induced Endothelin-1 production; experiment: ET-1 assay: inhibitory effect on TGF-b induced endothelin-1 production; type: cell-based; conditions: Homo sapiens, Fibroblast; fibroblasts, stimulant (TGFb, serum, LPA etc), ET-1 in media by ELISA, 4-parameter fit
pEC50: −log10 of the molar value.

{"columns": ["COMPOUND_STRUCTURE", "TEST_TARGET", "pEC50"],
 "data": [
  ["Cn1cc(-c2cn(-c3ccc(Cl)cc3)c(=O)c3c2ccn3C)cn1", "TGF-b induced Endothelin-1 production", "> 4.30"],
  ["CCn1c(=O)oc2cc(-c3cn(-c4ccc(OC(F)(F)F)cc4)c(=O)cc3C)ccc21", "TGF-b induced Endothelin-1 production", "> 4.30"],
  ["O=c1c2c(c(-c3ccc(F)cc3)cn1-c1ccc(OC(F)(F)F)cc1)CCCC2", "TGF-b induced Endothelin-1 production", "< 3.70"],
  ["CCn1ccc2c(=O)n(-c3ccc(OC(F)(F)F)cc3)cc(-c3cnn(C)c3)c21", "TGF-b induced Endothelin-1 production", "> 4.30"],
  ["COc1ccc(-n2cc(C)ccc2=S)cc1", "TGF-b induced Endothelin-1 production", "< 3.70"]
]}

###

test system: TGF-b induced Endothelin-1 production; assay: ET-1 assay: inhibitory effect on TGF-b induced endothelin-1 production; format: cell-based; details: Homo sapiens, Fibroblast; fibroblasts, stimulant (TGFb, serum, LPA etc), ET-1 in media by ELISA, 4-parameter fit
pEC50: −log10 of the molar value.

{"columns": ["COMPOUND_STRUCTURE", "pEC50"],
 "data": [
  ["Cn1cc(-c2cn(-c3ccc(C#N)cc3)c(=O)c3nccnc23)cn1", "< 3.70"],
  ["Cn1cc(-c2ccc(=O)n(-c3ccc(OC(F)(F)F)cc3)n2)cn1", "< 3.70"],
  ["Cc1cc(=O)n(-c2ccccc2F)cc1-c1ccccc1", "3.70 to 4.30"],
  ["Cc1cc(=O)n(-c2ccc3c(c2)OCCO3)cc1-c1cnn(C)c1", "< 3.70"],
  ["CCOc1ccc(-n2cc(C(F)(F)F)ccc2=O)c(C)c1", "3.70 to 4.30"]
]}

###

pEC50 values, listed per item
system: TGF-b induced Endothelin-1 production; test: ET-1 assay: inhibitory effect on TGF-b induced endothelin-1 production; assay type: cell-based; conditions: Homo sapiens, Fibroblast; fibroblasts, stimulant (TGFb, serum, LPA etc), ET-1 in media by ELISA, 4-parameter fit
pEC50: −log10 of the molar value.

{"columns": ["COMPOUND", "pEC50"],
 "data": [
  ["Cc1cc(=O)n(-c2ccc(OC(F)(F)F)cc2)cc1-c1ccc2ocnc2c1 [Compound 254]", "> 4.30"],
  ["Cn1cc(-c2cn(-c3ccc(O)cc3)c(=O)cc2Oc2ccccc2)cn1 [Compound 545]", "< 3.70"],
  ["Cc1cc(=O)n(-c2ccc(OC(F)(F)F)cc2)cc1-c1ccc2c(c1)N(C)C(=O)CO2 [Compound 210]", "> 4.30"],
  ["Cn1cc(-c2c[nH]c(=O)c3[nH]nnc23)cn1 [Compound 623]", "< 3.70"],
  ["O=c1ccc(-c2ccccc2)cn1-c1ccc(F)cc1 [Compound 294]", "3.70 to 4.30"],
  ["Cc1cc(=O)n(-c2ccc3c(c2)OCO3)cc1-c1ccc(F)cc1 [Compound 183]", "< 3.70"],
  ["O=c1ccc(-c2cn[nH]c2)cn1-c1ccc(OC(F)(F)F)cc1 [Compound 374]", "> 4.30"],
  ["Cn1cc(-c2c[nH]c(=O)cc2NCc2ncccn2)cn1 [Compound 542]", "> 4.30"],
  ["CCn1nc2c(-c3cnn(C)c3)cn(-c3ccc(OC(F)(F)F)cc3)c(=O)c2n1 [Compound 619]", "> 4.30"]
]}

###

system: TGF-b induced Endothelin-1 production; experiment: ET-1 assay: inhibitory effect on TGF-b induced endothelin-1 production; format: cell-based; settings: Homo sapiens, Fibroblast; fibroblasts, stimulant (TGFb, serum, LPA etc), ET-1 in media by ELISA, 4-parameter fit
ASSAY_METRIC: EC50

{"columns": ["COMPOUND", "TEST_TARGET", "TEST_RESULT"],
 "data": [
  ["NS(=O)(=O)c1ccc(-c2ccc(=O)n(-c3ccc(Cl)cc3)c2)cc1 [Compound 327]", "TGF-b induced Endothelin-1 production", "> 200 µM"],
  ["CCOc1ccc(-n2cc(-c3cn[nH]c3)c3ncccc3c2=O)c(C)c1 [Compound 580]", "TGF-b induced Endothelin-1 production", "< 50 µM"],
  ["Cc1cc(=O)n(-c2ccc(OC(C)C)cc2C)cc1-c1cnn(C)c1 [Compound 234]", "TGF-b induced Endothelin-1 production", "> 200 µM"],
  ["O=c1cc(OCc2ccccc2)c(-c2ccc(F)cc2)cn1-c1ccc(OC(F)(F)F)cc1 [Compound 91]", "TGF-b induced Endothelin-1 production", "> 200 µM"],
  ["O=C1Cc2ccccc2N1c1ccc(OC(F)(F)F)cc1 [Compound 81]", "TGF-b induced Endothelin-1 production", "50 to 200 µM"],
  ["Cc1cc(=O)n(-c2ccc(OC(F)(F)F)cc2)cc1C(F)(F)F [Compound 368]", "TGF-b induced Endothelin-1 production", "> 200 µM"],
  ["CCn1cnc2c(-c3cnn(C)c3)c[nH]c(=O)c21 [Compound 618]", "TGF-b induced Endothelin-1 production", "50 to 200 µM"],
  ["CCn1ccc2c(-c3cnn(C)c3)cn(-c3ccc(OC(F)(F)F)cc3)c(=O)c21 [Compound 60]", "TGF-b induced Endothelin-1 production", "< 50 µM"],
  ["Cn1cc(-c2cn(-c3ccc(OC(F)(F)F)cc3)c(=O)cc2OCCN2CCOCC2)cn1 [Compound 147]", "TGF-b induced Endothelin-1 production", "> 200 µM"],
  ["Cc1cc(=O)n(-c2ccc(OC(F)(F)F)cc2)cc1-c1ccccc1F [Compound 194]", "TGF-b induced Endothelin-1 production", "< 50 µM"],
  ["O=c1ccc(-c2cncnc2)cn1-c1ccccc1F [Compound 346]", "TGF-b induced Endothelin-1 production", "> 200 µM"],
  ["Cc1ccc(=O)n(-c2cc(F)c(F)c(F)c2)c1 [Compound 282]", "TGF-b induced Endothelin-1 production", "> 200 µM"],
  ["O=c1c2nsnc2c(-c2ccc(F)cc2)cn1-c1ccc(OC(F)(F)F)cc1 [Compound 40]", "TGF-b induced Endothelin-1 production", "> 200 µM"],
  ["N#Cc1ccc(-n2cc(-c3cn[nH]c3)c3cc[nH]c3c2=O)cc1 [Compound 608]", "TGF-b induced Endothelin-1 production", "50 to 200 µM"],
  ["CN1CCN(CCOc2cc(=O)n(-c3ccc(OC(F)(F)F)cc3)cc2-c2ccc(F)cc2)CC1 [Compound 100]", "TGF-b induced Endothelin-1 production", "< 50 µM"],
  ["O=C(NCc1ccccc1)c1cc(=O)n(-c2ccc(OC(F)(F)F)cc2)cc1-c1ccc(F)cc1 [Compound 118]", "TGF-b induced Endothelin-1 production", "> 200 µM"],
  ["Cc1cc(=O)n(-c2ccc(OC(F)(F)F)cc2)cc1-c1ccc(F)c(Cl)c1 [Compound 195]", "TGF-b induced Endothelin-1 production", "< 50 µM"],
  ["O=c1ccc(C(F)(F)F)cn1-c1ccc(OC(F)(F)F)cc1 [Compound 275]", "TGF-b induced Endothelin-1 production", "> 200 µM"]
]}

###

# pEC50 per entry
system: TGF-b induced Endothelin-1 production; experiment: ET-1 assay: inhibitory effect on TGF-b induced endothelin-1 production; assay type: cell-based; details: Homo sapiens, Fibroblast; fibroblasts, stimulant (TGFb, serum, LPA etc), ET-1 in media by ELISA, 4-parameter fit
pEC50: −log10 of the molar value.
ASSAY_METRIC: pEC50

{"columns": ["COMPOUND_STRUCTURE", "TEST_RESULT"],
 "data": [
  ["Cc1cc(=O)n(-c2ccc(C(F)(F)F)cc2)cc1-c1ccc(F)cc1", "< 3.70"],
  ["CNc1cc(=O)n(-c2ccc(OC(F)(F)F)cc2)cc1-c1cnn(C)c1", "< 3.70"],
  ["CCn1nnc2c(-c3cn[nH]c3)cn(-c3ccc(OC(F)(F)F)cc3)c(=O)c21", "> 4.30"],
  ["Cc1cc(=O)n(-c2ccc(OC(F)(F)F)cc2)cc1-c1cccc(F)c1", "> 4.30"]
]}
